Molecular target: Chymase purified form human skin mast cells (Homo sapiens)
Construct: Chymase purified form human skin mast cells was obtained from Calbiochem
Sequence (P23946 22-247): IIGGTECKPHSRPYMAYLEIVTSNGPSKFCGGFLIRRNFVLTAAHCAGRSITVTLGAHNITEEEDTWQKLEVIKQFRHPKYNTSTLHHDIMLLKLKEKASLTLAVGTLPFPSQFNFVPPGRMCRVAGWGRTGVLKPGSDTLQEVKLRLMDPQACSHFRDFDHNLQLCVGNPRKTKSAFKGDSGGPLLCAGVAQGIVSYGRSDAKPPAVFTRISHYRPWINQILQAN
Test: chymase peptide substrate assay (AAPF-AMC fluorescence)
Conditions: 0.02 mM AAPF-substrate, 1 nM Chymase, pH 7.4, room temperature, 30 min pre-incubation
quantityKind: IC50 (nM)

{"compound": "CC(=O)NCc1c(C(C2=C(O)[C@@](C)(c3ccccc3)OC2=O)c2ccccc2)[nH]c2cc(C)ccc12 (stereo partly drawn) [Example 72]", "IC50 [nM]": 15}
{"compound": "CC(=O)NCc1c(C(C2=C(O)[C@@](C)(c3ccccc3)NC2=O)c2ccccc2)[nH]c2cc(C)ccc12 (stereo partly drawn) [Example 63]", "IC50 [nM]": 10}
{"compound": "Cc1c(C(C2=C(O)C(C(C)C)N(C)C2=O)c2ccccc2)[nH]c2ccc(F)cc12 (stereo not drawn) [Example 11]", "IC50 [nM]": 13}
